- System: HEK293T-Rex ERSE-FLuc
- protocol: maximal ERSE-FLuc activation from dose-response fit, relative to thapsigargin (% of thapsigargin); higher = stronger activation
- assayConditions: 18 h
Record form. Attribute: maximal ERSE-FLuc activation. Fill in for each entry.

Form entry - test system: HEK293T-Rex ERSE-FLuc; read-out: maximal ERSE-FLuc activation; molecule: CCCNc1ccnc(N2CCc3ccccc3C2)n1
12

Form entry - test system: HEK293T-Rex ERSE-FLuc; read-out: maximal ERSE-FLuc activation; molecule: N#Cc1c(NC(=O)c2ccc3c(c2)OCO3)sc2c1CCCC2
18.3

Form entry - test system: HEK293T-Rex ERSE-FLuc; read-out: maximal ERSE-FLuc activation; molecule: Cc1ccn2cc(-c3ccc(O)c(O)c3)nc2c1
25.3

Form entry - test system: HEK293T-Rex ERSE-FLuc; read-out: maximal ERSE-FLuc activation; molecule: CCCCCCOc1ccc(/C(C)=N/NC2=NCCN2)cc1[N+](=O)[O-]
34.7

Form entry - test system: HEK293T-Rex ERSE-FLuc; read-out: maximal ERSE-FLuc activation; molecule: Cc1ccc(O)c(NC(=O)CCc2ccccc2)c1
107

Form entry - test system: HEK293T-Rex ERSE-FLuc; read-out: maximal ERSE-FLuc activation; molecule: CCCc1cc(C(=O)Nc2cc(C)ccc2O)no1
116

Form entry - test system: HEK293T-Rex ERSE-FLuc; read-out: maximal ERSE-FLuc activation; molecule: CCOc1cccc(/C=C2\NC(=S)N(C)C2=O)c1O
6.21

Form entry - test system: HEK293T-Rex ERSE-FLuc; read-out: maximal ERSE-FLuc activation; molecule: N#C/C(=C/c1ccc(O)c(O)c1)c1nc2ccccc2[nH]1
29

Form entry - test system: HEK293T-Rex ERSE-FLuc; read-out: maximal ERSE-FLuc activation; molecule: Cc1ccc(O)c(NC(=O)c2cc(CC(C)C)on2)c1
89.2

Form entry - test system: HEK293T-Rex ERSE-FLuc; read-out: maximal ERSE-FLuc activation; molecule: Nc1ccccc1NC(=O)c1ccc(C(=O)Nc2ccccc2N)cc1
65.8

Form entry - test system: HEK293T-Rex ERSE-FLuc; read-out: maximal ERSE-FLuc activation; molecule: O=C(NCCCn1ccnc1)c1cc(-c2cccs2)on1
89.1

Form entry - test system: HEK293T-Rex ERSE-FLuc; read-out: maximal ERSE-FLuc activation; molecule: Cc1cccc2c1[nH]c1nc(N/N=C\c3c[nH]c4ccccc34)nnc12
41.7

Form entry - test system: HEK293T-Rex ERSE-FLuc; read-out: maximal ERSE-FLuc activation; molecule: C/C(=N\NC(=O)c1n[nH]c2c1CCCC2)c1ccc2ccccc2c1
23.2

Form entry - test system: HEK293T-Rex ERSE-FLuc; read-out: maximal ERSE-FLuc activation; molecule: Cc1ccc(C)c(/C=N/Nc2nncc3ccccc23)c1
26.4

Form entry - test system: HEK293T-Rex ERSE-FLuc; read-out: maximal ERSE-FLuc activation; molecule: O=C(N/N=C/c1cccc(O)c1O)c1ccccn1
25.7

Form entry - test system: HEK293T-Rex ERSE-FLuc; read-out: maximal ERSE-FLuc activation; molecule: Cc1ccccc1-c1cc(=O)c2cc(Cl)ccc2o1
24.3

Form entry - test system: HEK293T-Rex ERSE-FLuc; read-out: maximal ERSE-FLuc activation; molecule: Cc1cc(C)nc(Nc2nc(-c3ccc(O)c(O)c3)cs2)n1
39.7

Form entry - test system: HEK293T-Rex ERSE-FLuc; read-out: maximal ERSE-FLuc activation; molecule: Cc1ccc(O)c(NC(=O)c2cc(C3CC3)on2)c1
91.7

Form entry - test system: HEK293T-Rex ERSE-FLuc; read-out: maximal ERSE-FLuc activation; molecule: Oc1ccc(-c2csc(-c3ccccc3)n2)cc1O
65.2

Form entry - test system: HEK293T-Rex ERSE-FLuc; read-out: maximal ERSE-FLuc activation; molecule: O=C1N/C(=C/c2ccc(O)cc2)C(=O)N1c1ccccc1
110

Form entry - test system: HEK293T-Rex ERSE-FLuc; read-out: maximal ERSE-FLuc activation; molecule: CCCNC(=O)c1ccc2nc(-c3ccc4[nH]ccc4c3)sc2c1
13.9

Form entry - test system: HEK293T-Rex ERSE-FLuc; read-out: maximal ERSE-FLuc activation; molecule: O=C(Nc1ccc(O)cc1)c1c(O)c2c([nH]c1=O)CCCC2
22.3

Form entry - test system: HEK293T-Rex ERSE-FLuc; read-out: maximal ERSE-FLuc activation; molecule: COCCNC(=O)c1cc(-c2cccs2)on1
54.1

Form entry - test system: HEK293T-Rex ERSE-FLuc; read-out: maximal ERSE-FLuc activation; molecule: NC(=O)c1c(NC(=O)/C=C/c2ccccc2)sc2c1CCCCC2
22.6

Form entry - test system: HEK293T-Rex ERSE-FLuc; read-out: maximal ERSE-FLuc activation; molecule: N#C/C(=C\c1ccc(O)c(O)c1)c1nc2ccccc2[nH]1
37.6

Form entry - test system: HEK293T-Rex ERSE-FLuc; read-out: maximal ERSE-FLuc activation; molecule: C(=N/Nc1nnc2c(n1)[nH]c1ccccc12)/c1c[nH]c2ccccc12
43.9

Form entry - test system: HEK293T-Rex ERSE-FLuc; read-out: maximal ERSE-FLuc activation; molecule: N#CC1=C(N)Oc2c(ccc3ccccc23)C1c1ccsc1 (centres undefined)
21.2

Form entry - test system: HEK293T-Rex ERSE-FLuc; read-out: maximal ERSE-FLuc activation; molecule: Cc1cc(C)c(OCC(=O)N/N=C/c2ccc(O)c(O)c2)c(Br)c1
49.6

Form entry - test system: HEK293T-Rex ERSE-FLuc; read-out: maximal ERSE-FLuc activation; molecule: Cc1nn(-c2ccc(F)cc2)c2ncc(C(=O)NCc3ccco3)c(Cl)c12
63.1

Form entry - test system: HEK293T-Rex ERSE-FLuc; read-out: maximal ERSE-FLuc activation; molecule: N#C/C(=C(/O)c1cc(-c2ccccc2)nc2ccccc12)c1nc2ccccc2[nH]1
24.8

Form entry - test system: HEK293T-Rex ERSE-FLuc; read-out: maximal ERSE-FLuc activation; molecule: COc1ccc(-c2cnnc(N/N=C/c3ccc(O)c(O)c3)n2)cc1
54.5

Form entry - test system: HEK293T-Rex ERSE-FLuc; read-out: maximal ERSE-FLuc activation; molecule: Cc1nc(-c2coc3c(O)c(O)ccc3c2=O)cs1
35.2

Form entry - test system: HEK293T-Rex ERSE-FLuc; read-out: maximal ERSE-FLuc activation; molecule: COc1ccc(/C=C/c2ccc3cccc(OC(C)=O)c3n2)cc1OC(C)=O
25.7

Form entry - test system: HEK293T-Rex ERSE-FLuc; read-out: maximal ERSE-FLuc activation; molecule: O=C(CCc1ccccc1)Nc1ccc(Cl)cn1
26.1

Form entry - test system: HEK293T-Rex ERSE-FLuc; read-out: maximal ERSE-FLuc activation; molecule: O=[N+]([O-])c1ccc(N/N=C/c2ccccc2O)cc1
44.5

Form entry - test system: HEK293T-Rex ERSE-FLuc; read-out: maximal ERSE-FLuc activation; molecule: Oc1ccc(-c2cn3ccccc3n2)cc1O
51.7

Form entry - test system: HEK293T-Rex ERSE-FLuc; read-out: maximal ERSE-FLuc activation; molecule: N#Cc1c(NC(=O)c2cccc(F)c2)sc2c1CCC2
19.5

Form entry - test system: HEK293T-Rex ERSE-FLuc; read-out: maximal ERSE-FLuc activation; molecule: O=C(/C=C/c1ccccc1)Nc1ccc(Br)cn1
26.2

Form entry - test system: HEK293T-Rex ERSE-FLuc; read-out: maximal ERSE-FLuc activation; molecule: CCC(=O)N(Cc1cc2cc(C)ccc2n2nnnc12)C1CCCC1
20.1

Form entry - test system: HEK293T-Rex ERSE-FLuc; read-out: maximal ERSE-FLuc activation; molecule: O=C(N/N=C/c1ccc(O)c(O)c1)c1cccc(Cl)c1
69.2

Form entry - test system: HEK293T-Rex ERSE-FLuc; read-out: maximal ERSE-FLuc activation; molecule: COc1ccc(-n2nnnc2SCC(N)=O)c(OC)c1
11.9

Form entry - test system: HEK293T-Rex ERSE-FLuc; read-out: maximal ERSE-FLuc activation; molecule: N/C(=N\N=C\c1ccc(O)c(O)c1)c1nonc1N
96.9

Form entry - test system: HEK293T-Rex ERSE-FLuc; read-out: maximal ERSE-FLuc activation; molecule: CC(Oc1ccc(Cl)cc1Cl)C(=O)NNC(=O)c1ccc(O)c(O)c1 (centres undefined)
50

Form entry - test system: HEK293T-Rex ERSE-FLuc; read-out: maximal ERSE-FLuc activation; molecule: O=C(CCCN1CCC2(CC1)C(=O)NCN2c1ccccc1)c1ccc(F)cc1
157

Form entry - test system: HEK293T-Rex ERSE-FLuc; read-out: maximal ERSE-FLuc activation; molecule: COc1cccc(/C=N\NC(=O)c2n[nH]c3c2CCC3)c1
25.8

Form entry - test system: HEK293T-Rex ERSE-FLuc; read-out: maximal ERSE-FLuc activation; molecule: Oc1ccc(/C=N/Nc2cccc(Cl)n2)c(O)c1
24.4

Form entry - test system: HEK293T-Rex ERSE-FLuc; read-out: maximal ERSE-FLuc activation; molecule: CC(C)NC(=O)c1cc(-c2ccc(O)cc2)on1
1.46

Form entry - test system: HEK293T-Rex ERSE-FLuc; read-out: maximal ERSE-FLuc activation; molecule: CC(=Nc1ccc(O)cc1)c1sc2ccccc2c1O
19.8

Form entry - test system: HEK293T-Rex ERSE-FLuc; read-out: maximal ERSE-FLuc activation; molecule: COc1ccc2c(Cl)c(C(=O)Nc3ccccc3C(N)=O)sc2c1
21.3
